minimum inhibitory concentration (MIC) by entry:
Test system: Staphylococcus aureus Smith
Assay: MIC, two-fold agar dilution method
Format: cell-based
Conditions: nutrient agar
readout label: minimum inhibitory concentration (MIC)

| compound | observed measurement |
| --- | --- |
| Cc1c(N)nc(C(CC(N)=O)NCC(N)C(N)=O)nc1C(=O)NC(C(=O)NC(C)C(O)CC(=O)NC(C(=O)NC(OC1OC(C)C(N)C(O)C1O)C(O)c1nc(-c2nc(C(=O)NCCN)cs2)cs1)C(C)O)C(OC1OC(CO)C(O)C(O)C1OC1OC(CO)C(O)C(OC(N)=O)C1O)c1c[nH]cn1 (stereo not drawn) [Tallysomycin S3b] | 0.8 |
| CNCCCNC(=O)CC(N)CCCNC(=O)c1csc(-c2csc(C(O)C(NC(=O)C(NC(=O)CC(O)C(C)NC(=O)C(NC(=O)c3nc(C(CC(N)=O)NCC(N)C(N)=O)nc(N)c3C)C(OC3OC(CO)C(O)C(O)C3OC3OC(CO)C(O)C(OC(N)=O)C3O)c3c[nH]cn3)C(C)O)OC3OC(C)C(N)C(O)C3O)n2)n1 (stereo not drawn) [Tallysomycin S11a] | 0.8 |
| Cc1c(N)nc(C(CC(N)=O)NCC(N)C(N)=O)nc1C(=O)NC(C(=O)NC(C)C(O)CC(=O)NC(C(=O)NC(OC1OC(C)C(N)C(O)C1O)C(O)c1nc(-c2nc(C(=O)NCCCC(N)CC(=O)NCCCCN)cs2)cs1)C(C)O)C(OC1OC(CO)C(O)C(O)C1OC1OC(CO)C(O)C(OC(N)=O)C1O)c1c[nH]cn1 (stereo not drawn) [Tallysomycin S10a] | 1.6 |
